Tested on: TO-N3-2 (biotin conjugate)
Experiment: pull-down binding Z-score (relative to library population); higher = stronger binding
Conditions: RNA library: Library-2
Observable: pull-down binding Z-score

Take a look at these entries with their results.
                             entry_sequence                 observable  obs_value
0  UGCAUUUCUUACCUAGAGUUUUUAGUGCA [DMSMaPseq_invitro_SARS-CoV-2_Motif_163]  pull-down binding Z-score      -1.24
1                         UUAAGUGACACACUUAA  pull-down binding Z-score      -1.49
2  GGCGGAGGCAGGCGUGACCGUUUGCC [hsa-mir-4632]  pull-down binding Z-score       1.56
3           GUUUAAGGAAGGUGUAGAGUUUCUUAGAGAC  pull-down binding Z-score      0.726
4  UGAAGUAUUUUGUGAAAAUAGGACCUGAGCGCACCUGUUGUCUAUGUGAUAGACGUGCCACAUGCUUUUCCACUGCUUCA [SHAPE_invitro_SARS-CoV-2_Motif_342]  pull-down binding Z-score     0.0857

Query: Need pull-down binding Z-score, item CCCAAGUCAUGAAGGAGAGGG [IAV_invivo_PA_3_Motif_13+IAV_invivo_PA_3_Motif_13]
Response: 0.652

Query: Need pull-down binding Z-score, item GACACUUUCACUAUAUAUAGUGGC [hsa-mir-3156-3]
Response: -0.533

Query: Need pull-down binding Z-score, item UUAUUUGAGAUGAGUUACAUCUUGGAGG [hsa-mir-1204]
Response: -0.536

Query: Need pull-down binding Z-score, item GGUGUCAUGCCCCAAGAUAACC [hsa-mir-634]
Response: 0.0681

Query: Need pull-down binding Z-score, item UUUUCCUGAGAAUAAGAGAAGGAAGG [hsa-mir-4455]
Response: 0.75

Query: Need pull-down binding Z-score, item GCGGCCGCGCUGGCCGCU [hsa-mir-3665]
Response: 0.524

Query: Need pull-down binding Z-score, item UUUAGUAUGCCACAUUUCUAAA [hsa-mir-4282]
Response: -0.699

Query: Need pull-down binding Z-score, item ACAGGUUUUAUCGAACCUGU [IAV_invivo_PB1_2_Motif_25+IAV_invivo_PB1_2_Motif_25]
Response: -1.54

Query: Need pull-down binding Z-score, item GGGGGCAGGCUGCCACCUCCUG [hsa-mir-8089]
Response: 1.36

Query: Need pull-down binding Z-score, item GACAUUGCCAGAGGAUGGGCAGCAGAC [hsa-mir-6855]
Response: 1.17

Query: Need pull-down binding Z-score, item GGGUUGCAUCCUAAGCUGUGCUGGAGCUUCCC [hsa-mir-623]
Response: 0.682

Query: Need pull-down binding Z-score, item GGCAGUUUGUAUGUAAAUAAACAUGCAUUCC [SHAPE_invivo_SARS-CoV-2_Motif_362]
Response: -0.727

###

System: TO-N3-2 (biotin conjugate)
Assay: pull-down binding Z-score (relative to library population); higher = stronger binding
Conditions: RNA library: Library-2
Observable: pull-down binding Z-score
The response must contain the number and no unit.

Take a look at these entries with their results.
>>> print(df.to_string())
                            entry_sequence                   tested_on                 observable  obs_value
0             UGCCUCUCGGGGU [hsa-mir-6073]  TO-N3-2 (biotin conjugate)  pull-down binding Z-score      0.214
1  ACGCGCUGUGACACUUCAAACUCGU [hsa-mir-126]  TO-N3-2 (biotin conjugate)  pull-down binding Z-score      0.424

Query: Need pull-down binding Z-score, item CAACCUAAAUAGAGGUAUG
Response: -0.591

Query: Need pull-down binding Z-score, item CGGCAUCAUAUGGGUUGCAACUGAGGGAGCCUUGAAUACACCAAAAGAUCACAUUGGCACCCGCAAUCCUGCUAACAAUGCUG [SHAPE_invitro_SARS-CoV-2_Motif_522]
Response: 0.334

Query: Need pull-down binding Z-score, item CCAGUAUCUGAAUUACUUACACCACUGG [SHAPE_invivo_SARS-CoV-2_Motif_58]
Response: -0.0924

Query: Need pull-down binding Z-score, item GUUUUUGUACACAAUUAAACCGUGCUUUAACUGGAAUAGCUGUUGAACAAGACAAAAAC [DMSMaPseq_invitro_SARS-CoV-2_Motif_424]
Response: -0.336

Query: Need pull-down binding Z-score, item GUUGUUACUCACAAUUUUGACUUCACUUUUAGUUUUAGUCCAGAGUACUCAAU
Response: -0.924

Query: Need pull-down binding Z-score, item GCUUCUAGAAAGUGAACUCGUAAUCGGAGCUGUGAUCCUUCGUGGACAUCUUCGUAUUGCUGGACACCAUCUAGGACGC
Response: 1.23
